- Test system: NCI-H522 lung
- assay-summary: NCI tumour cell line growth inhibition, 48 h
Classification field: Satisfied = TGI at or over 10 µM; Not satisfied = TGI under 10 µM.

Take a look at these entries with their results.
- compound: "N=C1N=C(N)c2cc3c(cc21)SCCSCCCSCCS3"
  class: "Satisfied"
- compound: "C[C@]12CCC(=O)C=C1CC[C@@H]1[C@@H]2C(=O)C[C@@]2(C)[C@H]1CC[C@]2(O)C(=O)CO"
  class: "Satisfied"
- compound: "Cc1cc(N(CCCNc2ccnc3cc(Cl)ccc23)Cc2cccs2)nc(Cl)n1"
  class: "Satisfied"
- compound: "O=S(=O)(NC(=S)Nc1ccccc1)c1ccc(N2N=C3c4ccccc4CC3C2c2ccc(Cl)cc2)cc1 (centres undefined)"
  class: "Satisfied"
- compound: "CSC(=S)N(C)NC(=O)c1cccc(C(=O)NN(C)C(=S)SC)n1"
  class: "Satisfied"
- compound: "N#CSCC1COc2ccccc2O1 (centres undefined)"
  class: "Not satisfied"

Task: hey, is TGI for this one >= 10 µM? COC(=O)[C@]12CC[C@@H](C)[C@H](C)[C@@H]1C1=CC[C@@H]3[C@@]4(C)C(c5ncon5)=C[C@@](C)(CO)C4=CC[C@@]3(C)[C@]1(C)CC2
Result: Not satisfied

Task: hey, is TGI for this one >= 10 µM? CCCCCCC(CCl)c1sc(-c2csc(CCNC(=O)OC(C)(C)C)n2)nc1C(=O)OC (centres undefined)
Result: Satisfied

Task: hey, is TGI for this one >= 10 µM? COC(=O)c1[nH]nc(-c2ccccc2)c1N1CCCCC1
Result: Satisfied

====

Assignment: determine reported TGI for the given compounds.
- Tested on: IGROV1 ovarian
- assay-summary: NCI tumour cell line growth inhibition, 48 h
Answers are plain numbers, in µM.

Worked cases, answers included:
- compound: "O=C(/C=C/c1cccs1)c1ccsc1"
  TGI, µM: 73.6
- compound: "C[C@H](CC[C@@H](O)C(C)(C)O)[C@H]1CC[C@@]2(C)[C@@H]3CC=C4[C@@H](CC[C@H](OC5OC(CO)C(O)C(O)C5O)C4(C)C)[C@]3(C)C(=O)C[C@]12C (stereo not given in full)"
  TGI, µM: 44.3
- compound: "C=CCC1NCCC2=C1C(S(=O)(=O)c1ccc(C)cc1)c1ccccc12 (stereo not given)"
  TGI, µM: 23.3

Task: State the recorded TGI for this entry: CC(=O)OCCC/C(=C\c1ccc2ccccc2c1)[N+](=O)[O-]
Result: 3.98

====

- System: SF-539 CNS
- assay-summary: NCI tumour cell line growth inhibition, 48 h
Classification field: Met = TGI at or over 7 µM; Not met = TGI under 7 µM.

- compound: "O=C1Nc2ccccc2NC1C1OC(c2ccccc2)=CC1=O (stereo unspecified)"
  class: "Met"

Task: hey, is TGI for this one >= 7 µM? Cc1ccc([N+](=O)[O-])cc1S(=O)(=O)Nc1ccc(C2=NN(c3ccc([N+](=O)[O-])cc3[N+](=O)[O-])C(c3ccccc3O)C2)cc1 (stereo unspecified)
Result: Met

Task: hey, is TGI for this one >= 7 µM? Brc1cccc(C2(CCCC3(c4cccc(Br)n4)OCCO3)OCCO2)n1
Result: Met

Task: hey, is TGI for this one >= 7 µM? COc1cc2ccc(CC#N)cc2cc1OC
Result: Met

Task: hey, is TGI for this one >= 7 µM? CC(C)(C)c1ccc(C(=O)N/N=C/c2ccc(O)cc2O)cc1
Result: Not met

Task: hey, is TGI for this one >= 7 µM? COc1ccc(-c2nnc3n(C)c(=O)c4ccccc4n23)cc1O
Result: Not met

====

- Tested on: NCI-H23 lung
- assay-summary: NCI tumour cell line growth inhibition, 48 h
measurement-type: TGI

Worked cases, answers included:
- compound: "COc1ccc(/C=C/c2nc(N3CCOCC3)c3cc(F)c(F)cc3n2)cc1OC"
  measurement-type: "TGI"
  assay-result: "> 100 µM"
- compound: "O=C1Nc2ccccc2C12CC(c1ccccc1)=NN2 (stereo not drawn)"
  measurement-type: "TGI"
  assay-result: "> 100 µM"
- compound: "COC(=O)c1ccc(C)cc1C1CN=NC12Cc1cc(C)c(C)cc1C2=O (stereo not drawn)"
  measurement-type: "TGI"
  assay-result: "> 100 µM"
- compound: "CC1OC(OC2C(OC3C[C@@]4(C)C(C[C@H](O)[C@H]5[C@H](C6(C)CCC(C(C)(C)O)O6)CCC54C)[C@]4(C)CC[C@@H](O)C(C)(C)C34)OC(CO)C(O)C2O)C(O)C(O)C1O (stereo partly drawn) (tested in a mixture with another compound)"
  measurement-type: "TGI"
  assay-result: "> 100 µM"
- compound: "O=C(Cc1ccc(/C=C/C(=O)c2ncc[nH]2)cc1)Nc1ccc(Br)cc1"
  measurement-type: "TGI"
  assay-result: "8.5 µM"
- compound: "C=C1C(=O)[C@]23[C@H](O)[C@H]1CC[C@H]2[C@@]12CO[C@@]3(O)C[C@@H]1C(C)(C)CC[C@@H]2O"
  measurement-type: "TGI"
  assay-result: "> 25 µM"

Quick one: give me TGI for each item below, same order please.
1. CC(=O)Oc1ccc(OC(Oc2ccccc2)c2ccccc2)cc1 (stereo not drawn)
2. COc1cc2c3c(cc(Cl)nc3c1OC)C(O)(CC(C)=O)C(=O)N2 (stereo not drawn)

Result:
1. 47.6 µM
2. > 60.8 µM

====

Assignment: determine reported TGI for the given compounds.
- Tested on: CAKI-1 renal
- assay-summary: NCI tumour cell line growth inhibition, 48 h
One number for each entry, in µM.

- compound: "Cc1ccc(C(=O)Nc2ccc(CN3CCN(C)CC3)c(C(F)(F)F)c2)cc1C#Cc1cncc2ncccc12"
  unit-label: "µM"
  assay-result: 2.52
- compound: "CC(=O)Oc1ccc(OC(Oc2ccccc2)c2ccccc2)cc1 (configuration not stated)"
  unit-label: "µM"
  assay-result: 55.7
- compound: "ClCc1c(-c2ccccc2)nn(-c2ccccc2)c1CCl"
  unit-label: "µM"
  assay-result: 3.71
- compound: "CC(=O)NNC(=O)c1nn(-c2ccc(Cl)cc2)cc1OC(C)=O"
  unit-label: "µM"
  assay-result: 82.6
- compound: "CC(C)C(/C=C/c1ccccc1)=N\\NC(=O)N/N=C(/C=C/c1ccccc1)C(C)C"
  unit-label: "µM"
  assay-result: 30.6
- compound: "O=C1C2C(C(=O)[N]1[Hg][c]1ccccc1)C1(Cl)C(Cl)=C(Cl)C2(Cl)C1(Cl)Cl (configuration not stated)"
  unit-label: "µM"
  assay-result: 4.99
- compound: "Cc1cc2nc3n(c2cc1C)C(c1c(F)cccc1F)SC3 (configuration not stated)"
  unit-label: "µM"
  assay-result: 60.3
- compound: "O=C(Cc1ccccc1)Nc1nnc(CCSCCc2nnc(NC(=O)Cc3ccccc3)s2)s1"
  unit-label: "µM"
  assay-result: 66
- compound: "C/C1=C\\CC[C@@](C)(O)[C@H]2C[C@H](CC/C(C)=C/CC1)C1(CC1)C(=O)O2"
  unit-label: "µM"
  assay-result: 43.3
- compound: "Cc1cc[c-]cc1.Fc1c[c-]c(-c2ccccn2)c(F)c1.N#CCC[PH+](CCC#N)c1ccccc1.[Pt+2]"
  unit-label: "µM"
  assay-result: 14.1

Now, please, on to the next compound.
Task: State the recorded TGI for this entry: c1ccc(C(=NNc2nc3ccccc3[nH]2)c2ccccn2)nc1
Result: 2.07

====

- Tested on: HOP-62 NSCLC
- assay-summary: NCI tumour cell line growth inhibition, 48 h
Assignment: determine reported log10 TGI for the given compounds.
Units before log transform: µM; reported quantity: TGI; transform: log10.

Worked cases, answers included:
- compound: "COc1cc(C)c(C(=O)/C=C/c2cc(OC)c(O)c(OC)c2)cc1O"
  log10 TGI: 1.84
- compound: "COc1cc(N(C)C)ccc1/C=c1/c2ccccc2n2c1cc(-c1ccccc1)[n+]2C"
  log10 TGI: 0.01
- compound: "O=C(c1ccc(Cl)cc1)N1N=C(c2ccc(Cl)cc2)CC1(O)c1cc(F)c(Cl)cc1Cl (stereo unspecified)"
  log10 TGI: 1.89
- compound: "C=CCC1NCCC2=C1C(S(=O)(=O)c1ccc(C)cc1)c1ccccc12 (stereo unspecified)"
  log10 TGI: 1.45
- compound: "CC(=O)OCCC/C(=C\\c1ccc2ccccc2c1)[N+](=O)[O-]"
  log10 TGI: 0.61
- compound: "c1ccc(C(=NNc2nc3ccccc3[nH]2)c2ccccn2)nc1"
  log10 TGI: 0.42
- compound: "COCC(=O)[C@]1(O)Cc2c(O)c3c(c(O)c2[C@@H](OC2CC(N)C(O)C(C)O2)C1)C(=O)c1c(OC)cccc1C3=O (stereo partly specified)"
  log10 TGI: -0.07
- compound: "Cn1cc(-c2csc(-c3cn(CCN4CCOCC4)c4ccc(F)cc34)n2)c2cccnc21"
  log10 TGI: 0.88

Task: State the recorded log10 TGI for this entry: O=C(Cc1ccccc1)Nc1nnc(CCSCCc2nnc(NC(=O)Cc3ccccc3)s2)s1
Result: 1.29
